For reference, pIC50 measured on Apoptosis regulator Bcl-2 (Homo sapiens, UniProt P10415):
Formally, pIC50 is defined as -log10 of the concentration c, with c in mol/L.

Qu. What value of measured pIC50 is listed for O=C(c1ccc(Oc2ccccc2)cc1)c1cc(C(=O)c2nc3ccccc3s2)c(O)c(O)c1O ?
Ans. 6.77

Qu. What value of measured pIC50 is listed for CC(C)c1cc(C(=O)c2ccc(Oc3ccccc3)cc2)c(O)c(O)c1O ?
Ans. 5.47
